Each recorded value in this set is attributed to ChEMBL document CHEMBL3797172.

Each entry below carries its reported logD.
- condition info: octanol/water, pH 7.4, 1 h
Respond numerically, and do not add a unit to the figure.

Here's what some known entries look like.
| compound | reported endpoint | data value |
| --- | --- | --- |
| O=S(=O)([O-])CCc1ccccc1.[Na+] | logD | -1.45 |
| O=C1NC(=O)C(Cc2ccccc2)O1 (stereo not given) | logD | -0.16 |
| O=c1[nH]c(CCc2ccccc2)ns1 | logD | 1.66 |
| CC(=O)NOCCc1ccccc1 | logD | 1.18 |
| O=S([O-])CCc1ccccc1.[Na+] | logD | -1.3 |

Given the compound Oc1c(F)cc(Cc2ccccc2)cc1F , what is its reported logD?
3.34

Find the recorded logD belonging to [O-][S+](Cc1ccccc1)c1ccccc1O (stereo not given) and report it.
2.16

Returns the measured logD for the input compound. Input: CS(=O)(=O)NCCCc1ccccc1
1.42

====

- protocol description: Dissociation constant, pKa of the compound at 100 uM by capillary electrophoresis
- Assay type: physicochemical
- condition info: 100 µM
reported endpoint: pKa

Solved cases below.
| smiles input | pKa |
| --- | --- |
| O=c1c(O)c(NCc2ccccc2)c1=O | < 2 |
| CC(=O)NC(=O)NCc1ccccc1 | > 12 |
| CS(=O)(=O)NCCCc1ccccc1 | > 12 |

Any idea what pKa was measured for O=c1c(O)c(Cc2ccccc2)c1=O ?
< 2

Quick one: pKa for CN(C)S(=O)(=O)NC(=O)CCc1ccccc1 ?
5.86

Given the compound O=S(=O)([O-])CCc1ccccc1.[Na+] , what is its reported pKa?
< 2

====

- protocol description: Dissociation constant, pKa of the compound at 100 uM by capillary electrophoresis
- Type: physicochemical
reported endpoint: pKa at 100 µM
Just the number.

Given the compound CC1=C(O)CC(Cc2ccccc2)C1=O (stereo unspecified) , what is its reported pKa at 100 µM?
4.47

====

- protocol description: physchem
- condition info: 1-octanol/aqueous buffer, pH 7.4
reported endpoint: logD at 1 h
Reply with just the number.

Entry under review: CC1=C(O)CC(Cc2ccccc2)C1=O (stereo unspecified) . Reported logD at 1 h?
-0.33

====

- protocol description: Effective permeability of compound assessed as membrane retention at pH 7.4 at 200 uM after 5 hrs by PAMPA relative to control
- Type: ADME
- condition info: pH 7.4, 5 h
reported endpoint: R% (%)
The figure you give is taken to be in %; do not add the unit.

| molecule | R% [%] |
| --- | --- |
| O=C1C=C(O)CC1Cc1ccccc1 (stereo not given) | -3 |
| O=S(=O)(Cc1ccccc1)c1ccccc1O | 7.2 |

Could you share which R% value was measured for CC(=O)NC(=O)NCc1ccccc1 ?
-3.3

Which value of R% has been reported for O=c1[nH]c(CCc2ccccc2)no1 in the records?
-4

What does the record list as R% for O=C(CCc1ccccc1)NO ?
0.03

====

- protocol description: Effective permeability of compound assessed as membrane retention at pH 7.4 at 200 uM after 5 hrs by PAMPA relative to control
- Format: ADME
- condition info: pH 7.4, 5 h
reported endpoint: R%

Take a look at these entries with their results.
| compound | R% |
| --- | --- |
| CS(=O)(=O)NCCCc1ccccc1 | 8.1% |
| O=P(O)(O)CCc1ccccc1 | -2.7% |
| O=[PH](O)CCc1ccccc1 | -2.1% |

Next compound, please.
Need R%, item O=C(O)CCc1ccccc1
-7%
